Values from patent US5656660A

# tested_target: tryptase
# protocol_summary: In vitro tryptase inhibition assay
# Format: biochemical, human
# condition_info: tosyl-Gly-Pro-Lys-p-nitroanilide 0.5 mM; 1 h preincubation at room temperature; pH 8.2
recorded_metric: Ki (nM)
Write it as a number; the unit nM goes unstated.

// returns reported Ki for input NCc1ccc(CNC(=O)CCCC(=O)NCc2ccc(CNC(=O)CCCC(=O)NCc3ccc(CN)cc3)cc2)cc1
8.8

// returns reported Ki for input NCc1ccc(CNC(=O)CCC(=O)NCc2ccc(CNC(=O)CCC(=O)NCc3ccc(CN)cc3)cc2)cc1
3.45

// returns reported Ki for input NCc1ccc(CNC(=O)NCC(=O)NCCc2ccc(NC(=O)CNC(=O)NCc3ccc(CN)cc3)cc2)cc1
43

// returns reported Ki for input CN(Cc1ccc(CN(C)C(=O)CCCC(=O)NCC2CCC(CN)CC2)cc1)C(=O)CCCC(=O)NCC1CCC(CN)CC1 (centres unmarked)
138

// returns reported Ki for input CN(CCCC(=O)NCc1ccc(CN)cc1)C(=O)c1ccc(C(=O)N(C)CCCC(=O)NCc2ccc(CN)cc2)cc1
107

// returns reported Ki for input NCc1ccc(CNC(=O)CNC(=O)OCc2ccc(COC(=O)NCC(=O)NCc3ccc(CN)cc3)cc2)cc1
0.56

// returns reported Ki for input N=C(N)NCc1ccc(NC(=O)CNC(=O)OCc2ccc(COC(=O)NCC(=O)Nc3ccc(CNC(=N)N)cc3)cc2)cc1
8100

// returns reported Ki for input NC[C@H]1CC[C@H](CNC(=O)CNC(=O)OCc2ccc(COC(=O)NCC(=O)NC[C@H]3CC[C@H](CN)CC3)cc2)CC1
10

// returns reported Ki for input CN(Cc1ccc(CN)cc1)C(=O)CNC(=O)OCc1ccc(COC(=O)NCC(=O)N(C)Cc2ccc(CN)cc2)cc1
874

// returns reported Ki for input NC[C@H]1CC[C@H](C(=O)NCCCCNC(=O)OCc2ccc(COC(=O)NCCCCNC(=O)[C@H]3CC[C@H](CN)CC3)cc2)CC1
48

// returns reported Ki for input NCc1ccc(NC(=O)CNC(=O)OCc2ccc(COC(=O)NCC(=O)Nc3ccc(CN)cc3)cc2)cc1
783

// returns reported Ki for input NCc1ccc(C(=O)NCCCC(=O)NCc2ccc(CNC(=O)CCCNC(=O)c3ccc(CN)cc3)cc2)cc1
86

// returns reported Ki for input CN(Cc1ccc(CN(C)C(=O)CCC(=O)NCC2CCC(CN)CC2)cc1)C(=O)CCC(=O)NCC1CCC(CN)CC1 (centres unmarked)
118

// returns reported Ki for input N=C(N)Nc1ccc(CNC(=O)NCC(=O)NCc2ccc(CNC(=O)CNC(=O)NCc3ccc(NC(=N)N)cc3)cc2)cc1
700
